Data origin, for the record: the supplement of paper PMC10567573

Would you mind telling me the reported protein stability index of each entry?
B1: C8orf76 (parent)
chain: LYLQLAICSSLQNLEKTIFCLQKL

# Variants of: B1
# EXPERIMENTAL PROTOCOL: protein stability index of a GFP-peptide fusion (GPS, HEK-293T) (PSI 1-6); higher = more stable;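 note: lentivirally expressed fusions sorted by FACS into six bins by GFP to DsRed ratio, PSI derived from sequencing read proportions per bin multiplied by bin number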
# SETTINGS: c terminus: a fixed tail appended
Give bare numbers.

Example entries begin here.
LYLQLAICSSLQNLEKTIKCLQKL [F19K] : 3.04
LYLQLAICSSLQFLEKTIFCLQKL [N13F] : 2.51
LYLQLAICSSLQNLEKTIFCLDKL [Q22D] : 2.46

For every record below, what is its protein stability index?
1. LYLQLAICSSLQNLEKTIFCLQFL [K23F]
2. LYLQLQICSSLQNLEKTIFCLQKL [A6Q]
3. LYLQLAICSSLQNLEKTIFCHQKL [L21H]

2.92
2.63
2.76

For every record below, what is its protein stability index?
1. LYLQKAICSSLQNLEKTIFCLQKL [L5K]
2. LYLQLAICSSLQNLFKTIFCLQKL [E15F]
3. LYLILAICSSLQNLEKTIFCLQKL [Q4I]
4. LYLQLAICSSLQNLIKTIFCLQKL [E15I]
5. LYLQLAICSSLQNLEKTIFGLQKL [C20G]
6. LELQLAICSSLQNLEKTIFCLQKL [Y2E]
7. LYLQLAICSSLQRLEKTIFCLQKL [N13R]
8. LYLQEAICSSLQNLEKTIFCLQKL [L5E]

[1.36, 4.35, 2.44, 2.49, 3.1, 3.3, 3.01, 1.79]

For every record below, what is its protein stability index?
1. LYLQLAICSSLQNLECTIFCLQKL [K16C]
2. LYLQLAICSSLQNLEKTIFCYQKL [L21Y]
3. LYLQLAICSSLFNLEKTIFCLQKL [Q12F]
4. LYLQLAICSSLQNEEKTIFCLQKL [L14E]
5. LYLQLAICSSLQNLEKTIFMLQKL [C20M]

1: 4.77; 2: 3.14; 3: 2.75; 4: 1.9; 5: 1.94

For every record below, what is its protein stability index?
1. LYLQLAICSSLQNLEKTIFCLQML [K23M]
2. LYLQFAICSSLQNLEKTIFCLQKL [L5F]
3. LYLQLAICSSLQNLEKFIFCLQKL [T17F]

1. 1.58
2. 3.72
3. 3.63

For every record below, what is its protein stability index?
1. LYLCLAICSSLQNLEKTIFCLQKL [Q4C]
2. LYLQLAICSSLQNLEKTIFCLQTL [K23T]

1. 5.01
2. 2.15

For every record below, what is its protein stability index?
1. LYLQLAICSSLQNLEKNIFCLQKL [T17N]
2. LYLQLAICSSLQNLEKTIFCLQKA [L24A]
3. LYLQLAICSSLQNTEKTIFCLQKL [L14T]
4. LYLQLAICSSLQNLEKTIFTLQKL [C20T]
5. LYLQLAICSSLQNLPKTIFCLQKL [E15P]
6. LYLQLAHCSSLQNLEKTIFCLQKL [I7H]
7. LYLQLAICSSLQNGEKTIFCLQKL [L14G]
8. LYLQLAICSSLQNLEKTIFCLQGL [K23G]

[2.46, 2.13, 1.65, 2.13, 3.75, 2.71, 2.24, 3.17]

For every record below, what is its protein stability index?
1. SYLQLAICSSLQNLEKTIFCLQKL [L1S]
2. LYLQLAICSSLQNLEKTIMCLQKL [F19M]
3. LYLQLAICSSLQNLEKTIFRLQKL [C20R]

1: 3.44; 2: 3.62; 3: 3.09

For every record below, what is its protein stability index?
1. LYLELAICSSLQNLEKTIFCLQKL [Q4E]
2. LYLQLAICSSLQDLEKTIFCLQKL [N13D]
3. LYLQLAICSSLQNDEKTIFCLQKL [L14D]
4. LYLQLAICSSLMNLEKTIFCLQKL [Q12M]
5. DYLQLAICSSLQNLEKTIFCLQKL [L1D]

1. 1.65
2. 3.49
3. 3.85
4. 3.9
5. 4.64
